Target: HLA-A*30:02 (Homo sapiens, UniProt P04439, D101N/D140H/D185E/E176R/F33S/G80R/H175R/K168Q/Q94H/R138E/R41S/V100E)
Assay type: binding
Settings: percent relative the binding of positive control peptide KIQNFRVYY; duplicated experiments; positive binder >40%
Catalogue of Bind A*30:02 readings, one per entry.
Endpoint: Bind A*30:02

[[record]]
input_sequence = "SLTKLAAAW [Rv3875_35–43]"
endpoint = "Bind A*30:02"
reported_measurement = "50%"

[[record]]
input_sequence = "EAYQGVQQK [Rv3875_49–57]"
endpoint = "Bind A*30:02"
reported_measurement = "0%"

[[record]]
input_sequence = "ATELNNALQ [Rv3875_62–70]"
endpoint = "Bind A*30:02"
reported_measurement = "45%"

[[record]]
input_sequence = "AMASTEGNV [Rv3875_82–90]"
endpoint = "Bind A*30:02"
reported_measurement = "102%"

[[record]]
input_sequence = "MTEQQWNFA [Rv3875_1–9]"
endpoint = "Bind A*30:02"
reported_measurement = "52%"

[[record]]
input_sequence = "AIQGNVTSI [Rv3875_17-25]"
endpoint = "Bind A*30:02"
reported_measurement = "49%"

[[record]]
input_sequence = "AWGGSGSEA [Rv3875_42–50]"
endpoint = "Bind A*30:02"
reported_measurement = "90%"

[[record]]
input_sequence = "AAWGGSGSE [Rv3875_41–49]"
endpoint = "Bind A*30:02"
reported_measurement = "167%"

[[record]]
input_sequence = "AAAWGGSGS [Rv3875_40-48]"
endpoint = "Bind A*30:02"
reported_measurement = "129%"

[[record]]
input_sequence = "KLAAAWGGS [Rv3875_38-46]"
endpoint = "Bind A*30:02"
reported_measurement = "39%"

[[record]]
input_sequence = "WGGSGSEAY [Rv3875_43–51]"
endpoint = "Bind A*30:02"
reported_measurement = "89%"

[[record]]
input_sequence = "RTISEAGQA [Rv3875_74–82]"
endpoint = "Bind A*30:02"
reported_measurement = "98%"

[[record]]
input_sequence = "LLDEGKQSL [Rv3875_28–36]"
endpoint = "Bind A*30:02"
reported_measurement = "0%"

[[record]]
input_sequence = "AGQAMASTE [Rv3875_79–87]"
endpoint = "Bind A*30:02"
reported_measurement = "58%"

[[record]]
input_sequence = "SAIQGNVTS [Rv3875_16–24]"
endpoint = "Bind A*30:02"
reported_measurement = "67%"


###

Target: HLA-A*30:02 (Homo sapiens, UniProt P04439, D101N/D140H/D185E/E176R/F33S/G80R/H175R/K168Q/Q94H/R138E/R41S/V100E)
Assay type: binding
Conditions: time points 0-8 h
Endpoint: O-rate A*30:02 (t1/2) (h)

[[record]]
substance = "KAADMW GPS"
endpoint = "O-rate A*30:02 (t1/2)"
units_symbol = "h"
reported_measurement = 0.8

[[record]]
substance = "CGKAGCQT Y"
endpoint = "O-rate A*30:02 (t1/2)"
units_symbol = "h"
reported_measurement = 3

[[record]]
substance = "AGQAMASTE [Rv3875_79–87]"
endpoint = "O-rate A*30:02 (t1/2)"
units_symbol = "h"
reported_measurement = 2.3

[[record]]
substance = "LSMAGSSAM"
endpoint = "O-rate A*30:02 (t1/2)"
units_symbol = "h"
reported_measurement = 1.1

[[record]]
substance = "SAIQGNVTS [Rv3875_16–24]"
endpoint = "O-rate A*30:02 (t1/2)"
units_symbol = "h"
reported_measurement = 0.9

[[record]]
substance = "AMASTEGNV [Rv3875_82–90]"
endpoint = "O-rate A*30:02 (t1/2)"
units_symbol = "h"
reported_measurement = 2.5

[[record]]
substance = "LAAAWGGSG [Rv3875_39-47]"
endpoint = "O-rate A*30:02 (t1/2)"
units_symbol = "h"
reported_measurement = 2.1

[[record]]
substance = "SQIMYNYPT [Rv0288_2–10m1]"
endpoint = "O-rate A*30:02 (t1/2)"
units_symbol = "h"
reported_measurement = 0.5

[[record]]
substance = "AYHSMSSTH [Rv0288_68–76m1]"
endpoint = "O-rate A*30:02 (t1/2)"
units_symbol = "h"
reported_measurement = 0.5

[[record]]
substance = "PAVYLLDGL"
endpoint = "O-rate A*30:02 (t1/2)"
units_symbol = "h"
reported_measurement = 1

[[record]]
substance = "VQQKWDATA [Rv3875_54–62]"
endpoint = "O-rate A*30:02 (t1/2)"
units_symbol = "h"
reported_measurement = 1.6

[[record]]
substance = "AAWGGSGSE [Rv3875_41–49]"
endpoint = "O-rate A*30:02 (t1/2)"
units_symbol = "h"
reported_measurement = 1.5

[[record]]
substance = "DHAGDMAGY [Rv0288_13–21m1]"
endpoint = "O-rate A*30:02 (t1/2)"
units_symbol = "h"
reported_measurement = 0.3

[[record]]
substance = "LVANNT RLW"
endpoint = "O-rate A*30:02 (t1/2)"
units_symbol = "h"
reported_measurement = 0.5

[[record]]
substance = "MTEQQWNFA [Rv3875_1–9]"
endpoint = "O-rate A*30:02 (t1/2)"
units_symbol = "h"
reported_measurement = 1.4

[[record]]
substance = "IYAGSLSAL"
endpoint = "O-rate A*30:02 (t1/2)"
units_symbol = "h"
reported_measurement = 0.5

[[record]]
substance = "MYNYPAMLD [Rv0288_5–13m2]"
endpoint = "O-rate A*30:02 (t1/2)"
units_symbol = "h"
reported_measurement = 0.7

[[record]]
substance = "QT YKWETFL"
endpoint = "O-rate A*30:02 (t1/2)"
units_symbol = "h"
reported_measurement = 1

[[record]]
substance = "NLKFQDAYN"
endpoint = "O-rate A*30:02 (t1/2)"
units_symbol = "h"
reported_measurement = 0.4

[[record]]
substance = "WGGSGSEAY [Rv3875_43–51]"
endpoint = "O-rate A*30:02 (t1/2)"
units_symbol = "h"
reported_measurement = 1.1

